target: Histone deacetylase 1 (Homo sapiens, UniProt Q13547)
Sequence (Q13547 whole entry): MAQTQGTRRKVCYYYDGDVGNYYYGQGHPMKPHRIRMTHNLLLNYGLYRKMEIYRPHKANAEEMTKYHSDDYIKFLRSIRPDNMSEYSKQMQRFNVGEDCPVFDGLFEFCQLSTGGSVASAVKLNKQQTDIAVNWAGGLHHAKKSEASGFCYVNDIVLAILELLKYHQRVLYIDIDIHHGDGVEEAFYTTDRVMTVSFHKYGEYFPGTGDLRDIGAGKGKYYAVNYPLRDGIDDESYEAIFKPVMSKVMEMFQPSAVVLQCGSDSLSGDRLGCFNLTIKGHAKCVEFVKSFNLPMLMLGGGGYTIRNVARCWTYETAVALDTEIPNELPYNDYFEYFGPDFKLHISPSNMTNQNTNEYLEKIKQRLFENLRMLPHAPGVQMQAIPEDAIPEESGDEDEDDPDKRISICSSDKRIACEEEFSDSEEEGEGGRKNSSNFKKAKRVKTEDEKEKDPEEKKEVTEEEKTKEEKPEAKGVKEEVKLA
REPORTED_METRIC: IC50 (nM)
Express it in nM; write the number only.

# query: IC50 | item O=C(CCCSC[C@H](NC(=O)c1ccccc1)C(=O)Nc1ccccc1)NO | system: Histone deacetylase 1 (Homo sapiens, UniProt Q13547)
198

* * *

molecular target: Histone deacetylase (Homo sapiens) (UniProt Q13547+O15379+Q9UBN7+Q92769+Q9UQL6+Q8WUI4+Q9BY41+Q96DB2+P56524+Q9UKV0+Q969S8); test: Inhibition of HDAC in human HeLa nuclear extract at 1 uM using Boc-Lys(acetyl)-AMC as fluorogenic substrate measured after 1 hr by flourescence plate reader method relative to control; format: subcellular; details: Nucleus
REPORTED_METRIC: inhibition (%)
Express it in %; write the number only.

[
  {
    "SMILES_STRUCTURE": "O=C(CCCSC[C@H](NC(=O)OCc1ccccc1)C(=O)Nc1ccccc1)NO",
    "inhibition / %": 84
  },
  {
    "SMILES_STRUCTURE": "O=C(CCCSC[C@H](NS(=O)(=O)c1cccc(F)c1)C(=O)N[C@@H](Cc1c[nH]c2ccccc12)C(=O)NC1CCC1)NO",
    "inhibition / %": 82
  },
  {
    "SMILES_STRUCTURE": "O=C(CCCSC[C@H](NC(=O)OCc1ccccc1)C(=O)Nc1cccc2ccccc12)NO",
    "inhibition / %": 83
  }
]

--- query ---
Suppose we examine the compound O=C(CCCSC[C@H](NC(=O)c1ccccc1)C(=O)Nc1ccccc1)NO ; what inhibition value has been reported?
80

* * *

Measured IC50 on Histone deacetylase 8 (Homo sapiens, UniProt Q9BY41) follows.
Sequence (Q9BY41 whole entry): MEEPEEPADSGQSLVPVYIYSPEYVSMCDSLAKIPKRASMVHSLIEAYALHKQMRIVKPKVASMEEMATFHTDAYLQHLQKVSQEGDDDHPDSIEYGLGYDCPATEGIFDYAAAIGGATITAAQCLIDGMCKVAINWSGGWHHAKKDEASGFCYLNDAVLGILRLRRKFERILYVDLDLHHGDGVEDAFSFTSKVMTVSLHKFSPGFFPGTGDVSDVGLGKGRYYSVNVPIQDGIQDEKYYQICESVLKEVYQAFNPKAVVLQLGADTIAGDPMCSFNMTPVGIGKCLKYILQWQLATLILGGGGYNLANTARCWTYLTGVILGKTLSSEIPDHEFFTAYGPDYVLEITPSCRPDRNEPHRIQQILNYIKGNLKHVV

[
  {
    "SMILES_STRUCTURE": "O=C(CCCSC[C@H](NC(=O)OCc1ccccc1)C(=O)Nc1ccccc1)NO",
    "REPORTED_METRIC": "IC50",
    "RECORDED_MEASUREMENT": "> 200 nM"
  },
  {
    "SMILES_STRUCTURE": "O=C(CCCSC[C@H](NC(=O)c1ccccc1)C(=O)Nc1ccccc1)NO",
    "REPORTED_METRIC": "IC50",
    "RECORDED_MEASUREMENT": "> 200 nM"
  }
]

--- query ---
# query: IC50 | item O=C(CCCSC[C@H](NC(=O)OCc1ccccc1)C(=O)Nc1cccc2ccccc12)NO | system: Histone deacetylase 8 (Homo sapiens, UniProt Q9BY41)
> 200 nM

* * *

# half-life per record follows
experiment: Half life in human liver microsomes; format: ADME, Microsome
Express it in min; write the number only.

[
  {
    "SMILES_STRUCTURE": "O=C(CCCSC[C@H](NC(=O)c1ccccc1)C(=O)Nc1ccccc1)NO",
    "RESULT_UNIT": "min",
    "half-life": 34.8
  }
]

Suppose we examine the molecule O=C(CCCSC[C@H](NC(=O)OCc1ccccc1)C(=O)Nc1cccc2ccccc12)NO ; what half-life value has been reported?
3.96
